- system: Human Cav3.2 Channels (Homo sapiens)
- Construct: expressed in transfected cells
- Sequence (O95180 whole entry): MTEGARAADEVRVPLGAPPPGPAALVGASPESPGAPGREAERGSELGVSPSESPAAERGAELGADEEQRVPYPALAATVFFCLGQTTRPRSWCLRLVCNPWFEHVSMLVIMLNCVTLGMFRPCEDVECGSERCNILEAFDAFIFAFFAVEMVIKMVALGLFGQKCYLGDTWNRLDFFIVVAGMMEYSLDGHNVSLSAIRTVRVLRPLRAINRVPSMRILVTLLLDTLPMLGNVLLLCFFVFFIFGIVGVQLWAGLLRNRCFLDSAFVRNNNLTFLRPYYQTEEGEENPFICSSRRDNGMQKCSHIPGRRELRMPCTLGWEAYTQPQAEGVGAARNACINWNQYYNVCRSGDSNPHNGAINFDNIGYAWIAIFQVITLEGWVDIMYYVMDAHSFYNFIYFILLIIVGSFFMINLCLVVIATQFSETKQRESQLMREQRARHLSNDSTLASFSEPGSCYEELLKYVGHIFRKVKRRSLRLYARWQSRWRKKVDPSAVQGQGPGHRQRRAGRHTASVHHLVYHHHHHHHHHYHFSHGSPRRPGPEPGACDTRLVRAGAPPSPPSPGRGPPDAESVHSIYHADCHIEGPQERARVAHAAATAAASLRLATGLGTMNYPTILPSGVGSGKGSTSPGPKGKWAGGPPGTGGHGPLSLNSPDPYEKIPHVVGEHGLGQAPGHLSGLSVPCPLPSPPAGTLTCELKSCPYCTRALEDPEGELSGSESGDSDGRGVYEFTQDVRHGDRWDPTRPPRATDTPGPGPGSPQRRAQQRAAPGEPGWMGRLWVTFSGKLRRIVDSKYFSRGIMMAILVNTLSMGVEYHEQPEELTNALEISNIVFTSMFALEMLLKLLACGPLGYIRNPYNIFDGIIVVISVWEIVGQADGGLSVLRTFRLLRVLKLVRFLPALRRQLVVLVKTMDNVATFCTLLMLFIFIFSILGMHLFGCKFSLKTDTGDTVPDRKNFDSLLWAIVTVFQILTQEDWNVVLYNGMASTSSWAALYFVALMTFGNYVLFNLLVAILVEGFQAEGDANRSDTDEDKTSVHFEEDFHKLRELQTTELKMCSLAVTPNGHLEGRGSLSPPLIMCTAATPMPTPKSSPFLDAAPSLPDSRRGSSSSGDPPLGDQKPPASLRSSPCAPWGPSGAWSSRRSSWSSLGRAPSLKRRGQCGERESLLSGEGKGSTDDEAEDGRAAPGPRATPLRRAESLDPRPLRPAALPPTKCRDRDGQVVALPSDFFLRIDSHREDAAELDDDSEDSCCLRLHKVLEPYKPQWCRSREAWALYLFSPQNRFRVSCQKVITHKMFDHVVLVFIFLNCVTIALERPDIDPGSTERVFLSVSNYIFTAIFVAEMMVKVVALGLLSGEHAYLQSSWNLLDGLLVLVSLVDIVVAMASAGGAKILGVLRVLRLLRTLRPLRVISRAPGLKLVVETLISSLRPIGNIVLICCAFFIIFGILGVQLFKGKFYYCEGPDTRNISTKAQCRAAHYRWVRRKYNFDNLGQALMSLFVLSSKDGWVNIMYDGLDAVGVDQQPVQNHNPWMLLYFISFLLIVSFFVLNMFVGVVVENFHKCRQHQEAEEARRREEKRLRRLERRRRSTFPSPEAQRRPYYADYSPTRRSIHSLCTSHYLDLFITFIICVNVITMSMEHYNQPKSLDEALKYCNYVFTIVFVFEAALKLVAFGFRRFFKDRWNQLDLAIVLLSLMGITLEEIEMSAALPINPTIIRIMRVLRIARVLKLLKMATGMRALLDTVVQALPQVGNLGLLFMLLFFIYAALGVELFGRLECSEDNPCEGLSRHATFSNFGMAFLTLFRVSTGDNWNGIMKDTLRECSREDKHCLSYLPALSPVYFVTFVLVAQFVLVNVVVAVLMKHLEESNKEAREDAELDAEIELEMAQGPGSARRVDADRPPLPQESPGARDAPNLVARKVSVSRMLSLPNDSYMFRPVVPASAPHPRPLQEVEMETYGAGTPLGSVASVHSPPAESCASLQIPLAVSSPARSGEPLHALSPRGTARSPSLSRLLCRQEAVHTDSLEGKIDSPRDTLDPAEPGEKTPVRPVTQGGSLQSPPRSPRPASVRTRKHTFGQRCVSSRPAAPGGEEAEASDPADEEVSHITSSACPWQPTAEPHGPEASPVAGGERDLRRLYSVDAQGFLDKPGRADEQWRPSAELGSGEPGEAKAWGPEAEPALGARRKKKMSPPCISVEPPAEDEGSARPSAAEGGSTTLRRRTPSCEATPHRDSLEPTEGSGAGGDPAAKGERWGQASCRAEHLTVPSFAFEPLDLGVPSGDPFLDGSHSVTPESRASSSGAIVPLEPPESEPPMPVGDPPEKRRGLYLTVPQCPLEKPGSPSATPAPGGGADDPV
- protocol description: Electrophysiologic (whole-cell patch-clamp) assessment of calcium channel activity in HEK293 cells stably expressing hCav3.2
- Format: cell-based
- test parameters: −77 mV, geometric mean, read-out: Human Cav3.2 −77 mV IC50 (μM) GeoMean
API: label(entry) gives Condition met if the entry's IC50 is strictly smaller than 5 µM; on equality or larger values it gives Condition not met.

* Cc1cc(C(=O)N2CCN3CCC[C@@H]3C2)ccc1NC(=O)c1ccc2ccccc2c1 | Condition not met
* O=C(c1cccc(S(=O)(=O)Nc2ccccc2F)c1)N1CCN2CCCCC2C1 (stereo not shown) | Condition met
* O=C(c1cccc(S(=O)(=O)Nc2ccc(F)cc2)c1)N1CCN2CCC[C@H]2C1 | Condition met
* O=C(c1cccc(S(=O)(=O)NCC(c2ccccc2)c2ccccc2)c1)N1CCN2CCC[C@H]2C1 | Condition met
* O=C(c1cccc(S(=O)(=O)Nc2ccccc2F)c1)N1CCC(N2CCCCC2)CC1 | Condition met
* O=C(c1cccc(S(=O)(=O)Nc2ccccc2F)c1)N1CCN2CCC[C@@H]2C1 | Condition not met
* O=C(c1cccc(S(=O)(=O)Nc2cc(F)ccc2F)c1)N1CCN2CCC[C@@H]2C1 | Condition not met
* O=C(c1cc(S(=O)(=O)NCC(c2ccccc2)c2ccccc2)c(F)cc1Cl)N1CCN2CCC[C@@H]2C1 | Condition not met
* O=C(c1cccc(S(=O)(=O)Nc2cccc(F)c2)c1)N1CCN2CCC[C@H]2C1 | Condition not met
* O=C(c1cc(S(=O)(=O)N2CCc3ccccc32)c(F)cc1Cl)N1CCN2CCC[C@@H]2C1 | Condition not met
* O=C(c1cccc(S(=O)(=O)Nc2cc(F)ccc2F)c1)N1CCN2CCC[C@H]2C1 | Condition met
* O=C(c1cc(S(=O)(=O)Nc2ccc(C(F)(F)F)cc2)ccc1Cl)N1CCN2CCC[C@@H]2C1 | Condition not met
* O=C(c1cccc(S(=O)(=O)Nc2ccccc2F)c1)N1CCN2CCC[C@H]2C1 | Condition not met
* O=C(c1cccc(S(=O)(=O)N2CCN(c3ccc(F)cc3)CC2)c1)N1CCN2CCC[C@H]2C1 | Condition met
* O=C(c1cccc(S(=O)(=O)Nc2ccccc2C(F)(F)F)c1)N1CCN2CCC[C@@H]2C1 | Condition not met
* O=C(N[C@H](CO)c1ccccc1)c1cccc(S(=O)(=O)N2CCN3CCC[C@@H]3C2)c1 | Condition not met
* O=C(c1cccc(S(=O)(=O)Nc2ccc(F)cc2)c1)N1CCC(N2CCCCC2)CC1 | Condition met
* O=C(c1cccc(S(=O)(=O)Nc2ccccc2Cl)c1)N1CCN2CCC[C@H]2C1 | Condition met
